# System: rice (Oryza saliva)
# assay.text: Test B preemergence
# Format: in vivo
# particulars: Preemergence, Rate 500 g/ha; scale 0 to 100, 0 no effect, 100 complete control

compound	target.entity	Plant response rating, Rice
COc1cccc(N2CCC(n3ccc(C(C)(C)C)n3)C2=O)c1 (centres unmarked)	rice (Oryza saliva)	100
COc1ccn(C2CCN(c3cccc(C(F)(F)F)c3)C2=O)n1 (centres unmarked)	rice (Oryza saliva)	0
CCOc1cccc(N2CCC(n3ccc(C(C)(C)C)n3)C2=O)c1 (centres unmarked)	rice (Oryza saliva)	100
CC(C)(C)c1ccn(C2CCN(c3ccc(Cl)c(Cl)c3)C2=O)n1 (centres unmarked)	rice (Oryza saliva)	0
CCC(CC)c1ccn(C2OCN(c3cccc(OC(F)F)c3)C2=O)n1 (centres unmarked)	rice (Oryza saliva)	100

* * *

Recorded measurements of Plant response rating, Barnyardgrass, one per entry
# Tested on: barnyardgrass (Echinochloa crus-galli)
# assay.text: Test C flooded paddy test
# Assay type: in vivo
# particulars: flooded paddy test, Rate 250 g/ha; scale 0 to 100 (0 no effect, 100 complete control)
observable: Plant response rating, Barnyardgrass

molecule	target.entity	observed.result
COc1cc(C)nc(N2CCC(n3ccc(C(C)(C)C)n3)C2=O)n1 (stereo not drawn)	barnyardgrass (Echinochloa crus-galli)	0
CCC(C)c1ccn(C2CCN(c3ccc(F)c(C(F)(F)F)c3)C2=O)n1 (stereo not drawn)	barnyardgrass (Echinochloa crus-galli)	85
COc1cc(N2CCC(n3ccc(C(C)(C)C)n3)C2=O)ccc1Br (stereo not drawn)	barnyardgrass (Echinochloa crus-galli)	100
CCC(CC)c1ccn(C2CCN(c3ccc(F)c(C(F)(F)F)c3)C2=O)n1 (stereo not drawn)	barnyardgrass (Echinochloa crus-galli)	100
CCC(C)c1ccn(C2CCN(c3ccc(Br)c(OC)c3)C2=O)n1 (stereo not drawn)	barnyardgrass (Echinochloa crus-galli)	100
CC(C)(C)c1ccn(C2OCN(c3cccc(OC(F)F)c3)C2=O)n1 (stereo not drawn)	barnyardgrass (Echinochloa crus-galli)	100

* * *

# Test system: goosegrass (Eleusine indica)
# assay.text: Test C preemergence
# Type: in vivo
# particulars: preemergence; Rate 125 g/ha; scale 0 to 100, 0 no effect, 100 complete control
# From the text: […]
observable: Plant response rating, Goosegrass

compound	observed.result
CCOC(=O)c1cccc(N2CCC(n3ccc(C(C)(C)C)n3)C2=O)c1 (stereo not shown)	70
O=C1C(n2ccc(C3CC3)n2)OCN1c1cccc(C(F)(F)F)c1 (stereo not shown)	100
CC(C)(C)c1ccn(C2CCN(c3cccc(Br)c3)C2=O)n1 (stereo not shown)	100
CC(C)(C)c1ccn(C2SCN(c3cccc(OC(F)(F)F)c3)C2=O)n1 (stereo not shown)	100
COc1cc(OC)cc(N2CCC(n3ccc(C(C)(C)C)n3)C2=O)c1 (stereo not shown)	90
O=C1C(n2ccc(C3CC3)n2)CCN1c1cccc(C(F)(F)F)c1 (stereo not shown)	20
CC(C)(C)c1ccn(C2CCN(c3cccc(C(F)(F)F)c3)C2=S)n1 (stereo not shown)	90
O=C1C(n2ccc(C3CCC3)n2)OCN1c1cccc(C(F)(F)F)c1 (stereo not shown)	90
O=C1C(n2ccc(C3CCC3)n2)SCN1c1cccc(C(F)(F)F)c1 (stereo not shown)	90
CCC(C)c1ccn(C2SCN(c3cccc(OC(F)(F)F)c3)C2=O)n1 (stereo not shown)	100

* * *

Recorded measurements of Plant response rating, Barnyardgrass, one per entry
# Tested on: barnyardgrass (Echinochloa crus-galli)
# assay.text: Test B preemergence
# Type: in vivo
# particulars: Preemergence, Rate 500 g/ha; scale 0 to 100, 0 no effect, 100 complete control

compound	Plant response rating, Barnyardgrass
Cc1ccc(N2CCC(n3ccc(C(C)(C)C)n3)C2=O)cc1Br (centres unmarked) [Compound 35]	60
CCCCC(CCCC)c1ccn(C2OCN(c3cccc(OC(F)(F)F)c3)C2=O)n1 (centres unmarked) [Compound 113]	0
CCC(CC)c1ccn(C2SCN(c3cccc(C(F)(F)F)c3)C2=O)n1 (centres unmarked) [Compound 25]	100
Cc1c(F)cc(N2CCC(n3ccc(C(C)(C)C)n3)C2=O)cc1Br (centres unmarked) [Compound 78]	90
CCCC(C)c1ccn(C2CCN(c3ccc(Cl)c(OC)c3)C2=O)n1 (centres unmarked) [Compound 121]	100

* * *

# Tested on: cocklebur (Xanthium strumarium)
# assay.text: Test B postemergence
# Assay type: in vivo
# particulars: Rate 125 g/ha, scale 0 to 100, 0 no effect, 100 complete control
Recorded measurements of Plant response rating, Cocklebur, one per entry
observable: Plant response rating, Cocklebur

compound	observed.result
CC(C)OC(=O)c1cccc(N2CCC(n3ccc(C(C)(C)C)n3)C2=O)c1 (stereo not drawn)	20
CCC(C)c1ccn(C2CCN(c3ccc(Br)c(OC)c3)C2=O)n1 (stereo not drawn)	60
COc1cc(N2CCC(n3ccc(C(C)C)n3)C2=O)ccc1Br (stereo not drawn)	60
Cc1cc(C)nc(N2CCC(n3ccc(C(C)(C)C)n3)C2=O)c1 (stereo not drawn)	0
Cc1ccc(N2CCC(n3ccc(C(C)(C)C)n3)C2=O)cc1I (stereo not drawn)	30
CC(C)c1cccc(N2CCC(n3ccc(C(C)(C)C)n3)C2=O)c1 (stereo not drawn)	0
CCC(CC)c1ccn(C2CCN(c3ccc(Br)c(OC)c3)C2=O)n1 (stereo not drawn)	0
CCC(CC)c1ccn(C2OCN(c3cccc(OC(F)F)c3)C2=O)n1 (stereo not drawn)	30
CCCOC(=O)c1cccc(N2CCC(n3ccc(C(C)(C)C)n3)C2=O)c1 (stereo not drawn)	30

* * *

# Test system: cocklebur (Xanthium strumarium)
# assay.text: Test B preemergence
# Format: in vivo
# particulars: Preemergence, Rate 500 g/ha; scale 0 to 100, 0 no effect, 100 complete control
Recorded measurements of Plant response rating, Cocklebur, one per entry
observable: Plant response rating, Cocklebur

compound	observed.result
COc1cc(C)nc(N2CCC(n3ccc(C(C)(C)C)n3)C2=O)n1 (stereo not shown)	80
CC(C)(C)c1ccn(C2CCN(c3cccc(OC(F)F)c3)C2=O)n1 (stereo not shown)	0
CC(C)c1ccn(C2SCN(c3cccc(C(F)(F)F)c3)C2=O)n1 (stereo not shown)	20
CC(C)(C)c1ccn(C2CCN(c3ccc4c(c3)CCC4)C2=O)n1 (stereo not shown)	0
CCC(C)c1ccn(C2OCN(c3cccc(OC(F)F)c3)C2=O)n1 (stereo not shown)	0
CCCCC(CCCC)c1ccn(C2SCN(c3cccc(C(F)(F)F)c3)C2=O)n1 (stereo not shown)	0
CCC(C)c1ccn(C2CCN(c3ccc(F)c(C(F)(F)F)c3)C2=O)n1 (stereo not shown)	0
CCOc1cccc(N2CCC(n3ccc(C(C)(C)C)n3)C2=O)c1 (stereo not shown)	50
Cc1cccc(N2CCC(n3ccc(C(C)(C)C)n3)C2=O)c1 (stereo not shown)	0
CSc1cccc(N2CCC(n3ccc(C(C)(C)C)n3)C2=O)c1 (stereo not shown)	0
CCOc1cccc(N2CCC(n3ccc(C(C)C)n3)C2=O)c1 (stereo not shown)	60
Cc1c(Cl)cc(N2CCC(n3ccc(C(C)(C)C)n3)C2=O)cc1Cl (stereo not shown)	0
CC1(c2ccn(C3OCN(c4cccc(OC(F)(F)F)c4)C3=O)n2)CC1 (stereo not shown)	20
CC(C)(C)c1ccn(C2CCN(c3cccc(C(F)(F)F)c3)C2=S)n1 (stereo not shown)	0
CCC(CC)c1ccn(C2CCN(c3ccc(F)c(C(F)(F)F)c3)C2=O)n1 (stereo not shown)	0
COc1cc(N2CCC(n3ccc(C(C)(C)C)n3)C2=O)ccc1Cl (stereo not shown)	100
O=C1C(n2cccn2)CCN1c1cccc(C(F)(F)F)c1 (stereo not shown)	0
CCC(C)c1ccn(C2CCN(c3ccc(Br)c(OC)c3)C2=O)n1 (stereo not shown)	60
COc1cc(N2CCC(n3ccc(C(C)(C)C)n3)C2=O)ccc1Br (stereo not shown)	100
CC(C)(C)c1ccn(C2OCN(c3cccc(OC(F)F)c3)C2=O)n1 (stereo not shown)	0
Cc1ccc(N2CCC(n3ccc(C(C)(C)C)n3)C2=O)cc1OC(C)C (stereo not shown)	70
O=C1C(n2ccc(C3CCC3)n2)SCN1c1cccc(OC(F)F)c1 (stereo not shown)	0
CCCOc1cc(N2CCC(n3ccc(C(C)(C)C)n3)C2=O)ccc1C (stereo not shown)	20
CCOc1ccn(C2CCN(c3cccc(C(F)(F)F)c3)C2=O)n1 (stereo not shown)	0
CC(C)(C)c1ccn(C2CCN(c3ccc(F)c(Cl)c3)C2=O)n1 (stereo not shown)	0
CC1(c2ccn(C3SCN(c4cccc(OC(F)(F)F)c4)C3=O)n2)CC1 (stereo not shown)	0
CC(C)(C)c1ccn(C2CCN(c3cccc(SC(F)(F)F)c3)C2=O)n1 (stereo not shown)	0
CCC(C)c1ccn(C2OCN(c3cccc(C(F)(F)F)c3)C2=O)n1 (stereo not shown)	0

* * *

# System: johnsongrass (Sorghum halepense)
# assay.text: Test C preemergence
# Format: in vivo
# particulars: preemergence, Rate 250 g/ha, visual evaluation after 12 to 14 days
observable: Plant response rating (0 to 100), Johnsongrass

compound	observed.result
CC(C)c1ccn(C2OCN(c3cccc(C(F)(F)F)c3)C2=O)n1 (stereo not drawn) [Compound 27]	50
CC(C)(C)c1ccn(C2CCN(c3cccc(Br)c3)C2=O)n1 (stereo not drawn) [Compound 33]	0
CC(C)(C)c1ccn(C2SCN(c3cccc(OC(F)F)c3)C2=O)n1 (stereo not drawn) [Compound 36]	100
CCC(C)c1ccn(C2SCN(c3cccc(OC(F)(F)F)c3)C2=O)n1 (stereo not drawn) [Compound 32]	90
O=C1C(n2ccc(C3CCC3)n2)SCN1c1cccc(C(F)(F)F)c1 (stereo not drawn) [Compound 37]	90
CCC(CC)c1ccn(C2CCN(c3ccc(C)c(OC)c3)C2=O)n1 (stereo not drawn) [Compound 81]	20
CC(C)(C)c1ccn(C2CCN(c3cccc(OC(F)F)c3)C2=O)n1 (stereo not drawn) [Compound 76]	40
CC(C)(C)c1ccn(C2CCN(c3ccc(Cl)c(Cl)c3)C2=O)n1 (stereo not drawn) [Compound 34]	0
CC(C)(C)c1ccn(C2CCN(c3cccc(C(F)(F)F)c3)C2=S)n1 (stereo not drawn) [Compound 22]	40
CCC(CC)c1ccn(C2CCN(c3cccc(OC(C)C)c3)C2=O)n1 (stereo not drawn) [Compound 84]	0
CC(C)(C)c1ccn(C2CCN(c3ccc(Cl)c(Br)c3)C2=O)n1 (stereo not drawn) [Compound 56]	0
COc1cccc(N2CCC(n3ccc(C(C)(C)C)n3)C2=O)c1 (stereo not drawn) [Compound 87]	100
